recorded endpoint: melting point

[
  {
    "compound": "CC(C)C[C@H](NC(=O)c1ccc2c(c1)Nc1ccccc1S2)C(=O)N[C@@H](CC(C)C)C(=O)N[C@@H](CC(C)C)C(=O)N[C@H]1CCOC1O (stereo partly drawn)",
    "result": "174 to 176 °C"
  },
  {
    "compound": "Cn1c(=O)c(-c2ccc(Cl)cc2Cl)cc2c3cc(-c4ccno4)ccc3n(C)c21",
    "result": "241 to 242 °C"
  },
  {
    "compound": "Clc1ncccc1-c1nc2cccnc2o1",
    "result": "140 to 141 °C"
  }
]

====

Entries annotated with measured melting point

[
  {
    "compound": "CCCOc1c(OC)cc(N)c2ncccc12",
    "melting point": "73 to 74 °C"
  },
  {
    "compound": "CC(=O)Nc1ccc(C)c(NCCS(=O)(=O)F)c1",
    "melting point": "154 to 155 °C"
  },
  {
    "compound": "COc1cc(OC)c(-c2nc(N)sc2C)cc1Cl",
    "melting point": "188 °C"
  },
  {
    "compound": "CCOC(=O)c1c(C)ncn1-c1ccc(Cl)c(Cl)c1",
    "melting point": "135 to 136 °C"
  },
  {
    "compound": "CCc1cc(Br)cc2nc(C(=O)OC)c(C(=O)OC)c(O)c12",
    "melting point": "115 to 117 °C"
  },
  {
    "compound": "O=C(CCl)Nc1ccc2c(c1NC(=O)c1cc(C(F)(F)F)ccc1C(F)(F)F)C(=O)c1ccccc1C2=O",
    "melting point": "187 to 188 °C"
  },
  {
    "compound": "Cc1nc(NC(=O)c2ccc(Cl)c(Cl)c2)sc1C(=O)NCc1ccccc1",
    "melting point": "212 to 214 °C"
  },
  {
    "compound": "Cc1ccc(C(=O)Nc2c(NC(=O)CN3CCN(c4ccccc4C#N)CC3)ccc3c2C(=O)c2ccccc2C3=O)cc1",
    "melting point": "238 to 239 °C"
  },
  {
    "compound": "O=C1C=Cc2ccccc2C1(Cc1ccncc1)Cc1ccncc1",
    "melting point": "111 to 112 °C"
  },
  {
    "compound": "O=C1NC(=O)N(CCCc2ccccc2)C1O (centres undefined)",
    "melting point": "131 to 132 °C"
  },
  {
    "compound": "CC(=O)Nc1nc2c(ncn2COCCOC(C)=O)c(=O)[nH]1",
    "melting point": "202 to 204 °C"
  },
  {
    "compound": "N#Cc1ccc(OCCCCCOc2cccc(-c3cc4ccc(C#N)cc4o3)c2)cc1",
    "melting point": "138 to 140 °C"
  },
  {
    "compound": "CCc1nnc(NS(=O)(=O)c2ccc(NC(C)=O)cc2)s1",
    "melting point": "197 to 198 °C"
  },
  {
    "compound": "O=c1cc(CCCl)c2ccccc2[nH]1",
    "melting point": "186 to 187 °C"
  },
  {
    "compound": "CC(C)(C)c1ccc(COc2ccc(CSc3ccc(OCC(=O)O)c4c3CCC4)cc2)cc1",
    "melting point": "152 to 153 °C"
  },
  {
    "compound": "C/C(=C\\c1ccc(OCCN2CCOCC2)cc1)c1ccc2c(c1)SC(C)(C)S2",
    "melting point": "90 to 91 °C"
  },
  {
    "compound": "CC(C)(C)C(=O)SC/C(=C/c1ccccc1)C(=O)O",
    "melting point": "88 °C"
  },
  {
    "compound": "Cc1nccn1-c1cnc2[nH]cc(C(=O)C(C)(C)C)c2n1",
    "melting point": "247 to 249 °C"
  },
  {
    "compound": "CC1=CC(=O)C=C2CCC3C4CCC(=O)C4(C)CCC3C12C (centres undefined)",
    "melting point": "165 to 167 °C"
  },
  {
    "compound": "Cn1c(=Nc2ccc(Cl)cc2)sc2ncccc2c1=O",
    "melting point": "142 to 143 °C"
  },
  {
    "compound": "COc1ccc(S(=O)(=O)Nc2ccc(OC)nc2Nc2ccccc2)cc1",
    "melting point": "187 to 188 °C"
  },
  {
    "compound": "CN(C1=CC(=O)C(=O)c2ccccc21)C1CCCCC1",
    "melting point": "168 to 170 °C"
  },
  {
    "compound": "CC(C)Oc1cccc2oc(-c3ccccc3)cc(=O)c12",
    "melting point": "98 to 99 °C"
  },
  {
    "compound": "CS(=O)(=O)N(Cc1cccnc1)c1ccc(F)cc1",
    "melting point": "112 to 113 °C"
  },
  {
    "compound": "Clc1ccc2c(c1)N=C(N1CCNCC1)c1nccn1C2",
    "melting point": "120 to 123 °C"
  },
  {
    "compound": "Clc1cccc(Nc2ncnc3[nH]c(CN4CCOCC4)cc23)c1",
    "melting point": "244 to 246 °C"
  },
  {
    "compound": "CCC(c1oc2ccccc2c(=O)c1-c1cccc(F)c1)n1nc(-c2ccc3c(C)n[nH]c3c2)c2c(N)ncnc21 (centres undefined)",
    "melting point": "268 to 270 °C"
  },
  {
    "compound": "CC(C)c1ccc(NC(=O)c2ccc(C(=O)O)nc2)cc1C(C)C",
    "melting point": "199 to 200 °C"
  },
  {
    "compound": "CC(C)N1CCC(CN2CCN(CC3CCN(C(C)C)CC3)C2=C(C#N)C#N)CC1",
    "melting point": "172 to 174 °C"
  },
  {
    "compound": "COC(=O)C1Cc2c([nH]c3ccccc23)C(c2ccccc2Br)N1C(=O)CCl (centres undefined)",
    "melting point": "113 to 115 °C"
  },
  {
    "compound": "COc1c(C(O)CNC(C)(C)Cc2c(C)c(C)cc(C)c2C)ccc(O)c1O (centres undefined)",
    "melting point": "165 to 168 °C"
  },
  {
    "compound": "COC1=Cc2c(n(C)c(=O)n2C)CC1=NNC(=N)N",
    "melting point": "260 °C"
  },
  {
    "compound": "N#CCSC(C(=O)O)c1ccccc1 (centres undefined)",
    "melting point": "110 to 112 °C"
  },
  {
    "compound": "CSc1nnc(-c2ccc(F)cc2)c(-c2ccc(F)cc2)n1",
    "melting point": "132 to 135 °C"
  }
]
